Hey, just so you know, these numbers are from patent US20240124454A1.

# STUDY SYSTEM: CYP2C9 (Homo sapiens (Human))
# Sequence (P11712 whole entry): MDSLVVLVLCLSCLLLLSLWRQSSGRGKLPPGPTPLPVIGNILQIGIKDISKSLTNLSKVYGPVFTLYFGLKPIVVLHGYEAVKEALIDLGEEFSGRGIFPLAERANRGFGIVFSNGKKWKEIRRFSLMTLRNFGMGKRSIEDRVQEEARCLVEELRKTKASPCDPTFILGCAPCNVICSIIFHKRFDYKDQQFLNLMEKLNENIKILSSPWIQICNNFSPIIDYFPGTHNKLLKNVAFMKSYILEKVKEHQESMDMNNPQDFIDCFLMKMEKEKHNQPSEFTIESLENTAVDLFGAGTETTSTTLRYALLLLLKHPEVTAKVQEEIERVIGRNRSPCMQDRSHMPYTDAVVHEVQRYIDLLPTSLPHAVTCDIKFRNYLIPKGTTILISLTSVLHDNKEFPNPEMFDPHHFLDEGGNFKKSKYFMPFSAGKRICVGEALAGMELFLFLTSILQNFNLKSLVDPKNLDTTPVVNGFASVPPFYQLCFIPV
# ASSAY OVERVIEW: CYP2C9 inhibition in human liver microsomes (diclofenac substrate)
# Format: in vitro ADME
# RECORDED CONDITIONS: human liver microsome
Assignment: determine reported IC50 for the given compounds.

State recorded IC50 for all listed compounds.
1. Cn1cnc2c(=O)n(-c3cccnc3C3CC3)c3cc(C(F)(F)F)ccc3c21 (single isomer, unassigned) [Compound 48-P2]
2. Cn1cnc2c(=O)n(-c3cccnc3C3CC3)c3cc(Cl)ccc3c21 (single isomer, unassigned) [Compound 49-P2]
3. Cn1cnc2c(=O)n(-c3cccc(F)c3Cl)c3nc(C(F)(F)F)ccc3c21 (single isomer, unassigned) [Compound 25-P2]

1: > 30 µM; 2: > 30 µM; 3: > 30 µM

###

# STUDY SYSTEM: MAT2A (Homo sapiens (Human))
# Sequence (P31153 whole entry): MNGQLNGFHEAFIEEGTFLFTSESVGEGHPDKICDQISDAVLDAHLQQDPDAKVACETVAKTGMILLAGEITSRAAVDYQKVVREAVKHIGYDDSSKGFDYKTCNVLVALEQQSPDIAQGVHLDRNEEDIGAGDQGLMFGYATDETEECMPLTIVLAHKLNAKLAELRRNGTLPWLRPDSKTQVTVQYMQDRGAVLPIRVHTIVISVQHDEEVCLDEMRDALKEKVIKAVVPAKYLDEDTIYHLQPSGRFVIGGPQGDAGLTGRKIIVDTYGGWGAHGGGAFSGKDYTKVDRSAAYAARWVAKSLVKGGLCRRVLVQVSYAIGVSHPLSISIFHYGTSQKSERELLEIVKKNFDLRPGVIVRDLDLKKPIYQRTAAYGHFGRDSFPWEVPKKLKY
# ASSAY OVERVIEW: MAT2A biochemical test (inorganic phosphate colorimetric, PiColorLock)
# RECORDED CONDITIONS: class symbols; read-out: MAT2A inhibitory Activity IC50
MEASURE: IC50

Some entries whose results are on file:
Cn1cnc2c(=O)n(-c3cccc(F)c3Cl)c3cc(C(F)(F)F)ccc3c21	< 0.1 µM
Cc1cnccc1-n1c(=O)c2ncn(C)c2c2ccc(C(F)(F)F)nc21	0.5 to 1 µM
Cn1cnc2c(=O)n(-c3ccccc3C(F)(F)F)c3nc(C(F)(F)F)ccc3c21 (single isomer, unassigned) [Compound 57-P2]	< 0.1 µM

Next compound, IC50 to be filled in.
Query the reported IC50 for MAT2A (Homo sapiens (Human)); item: O=c1c2ncn(CCO)c2c2ccc(C(F)(F)F)nc2n1-c1ccccc1Cl
0.1 to 0.5 µM

###

# ASSAY OVERVIEW: Pharmacokinetics in Balb/c Nude mice
# Assay type: in vivo
# RECORDED CONDITIONS: female, mouse, plasma; PO 3 mg/kg, vehicle 10% VE TPGS aqueous solution, Balb/c Nude mice; read-out: AUC0-24
MEASURE: AUC(0-t) (ng·h/mL)
Give bare numbers, in ng·h/mL.

Dear colleague, I am looking for the recorded AUC(0-t) of the following compound: Cn1cnc2c(=O)n(-c3cccc(F)c3Cl)c3nc(C(F)(F)F)ccc3c21 (single isomer, unassigned) [Compound 25-P2]
30300

###

# Test system: HCT116 MTAP^−/− cells
# ASSAY OVERVIEW: Determination of intracellular SAM level by LC-MS/MS
# Format: cell-based
# RECORDED CONDITIONS: Homo sapiens, HCT-116, 6 h, read-out: SAM production inhibitory activity IC50
So I've got a bunch of compounds here, and I need their pIC50 values.
Give bare numbers, as −log10 of the molar value.

Record pIC50 per entry; entries follow.
1. Cc1ncccc1-n1c(=O)c2ncn(C)c2c2ccc(C(F)(F)F)nc21 (atropisomer, axis not shown) [Compound 20]
2. Cn1cnc2c(=O)n(-c3cccc(F)c3Cl)c3nc(C(F)(F)F)ccc3c21 (single isomer, unassigned) [Compound 25-P2]
3. Cn1cnc2c(=O)n(-c3cccnc3C3CC3)c3cc(Cl)ccc3c21 (single isomer, unassigned) [Compound 49-P2]
4. O=c1c2nc[nH]c2c2ccc(C(F)(F)F)nc2n1-c1ccccc1Cl
5. Cn1cnc2c(=O)n(-c3cccc(F)c3Cl)c3nc(C(F)(F)F)ccc3c21 (atropisomer, axis not shown) [Compound 25]

1: 8.52; 2: 8.55; 3: 8.72; 4: 8.42; 5: 8.36

Parameter requested: pIC50. Apply to each item below.
1. Cn1cnc2c(=O)n(-c3ccccc3Cl)c3nc(C(F)(F)F)ccc3c21
2. Cn1cnc2c(=O)n(-c3cccc(Cl)c3Cl)c3nc(C(F)(F)F)ccc3c21

8.13
8.06
